biological target: Mitogen-activated protein kinase 14 (Homo sapiens); test: Inhibition of p38alpha by Caliper mobility shift assay
Sequence (Q16539 whole entry): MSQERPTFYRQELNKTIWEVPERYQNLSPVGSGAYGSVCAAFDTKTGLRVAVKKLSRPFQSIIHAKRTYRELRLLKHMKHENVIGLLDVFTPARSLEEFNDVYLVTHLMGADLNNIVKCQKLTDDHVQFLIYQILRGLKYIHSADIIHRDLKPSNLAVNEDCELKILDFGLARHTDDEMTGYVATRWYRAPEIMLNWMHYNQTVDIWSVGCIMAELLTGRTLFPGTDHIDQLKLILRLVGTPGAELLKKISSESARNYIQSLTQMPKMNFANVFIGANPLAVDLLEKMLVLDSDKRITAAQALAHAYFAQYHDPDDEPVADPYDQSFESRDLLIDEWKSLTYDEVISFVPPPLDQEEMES
endpointLabel: IC50

{"molecule": "COc1cc(O)c2c(c1)CCCC(=O)C(=O)C(O)CCC[C@H](C)OC2=O (stereo partly specified)", "reported": "> 10 µM"}

----------
molecular target: Tyrosine-protein kinase JAK1 (Homo sapiens)
Sequence (P23458 whole entry): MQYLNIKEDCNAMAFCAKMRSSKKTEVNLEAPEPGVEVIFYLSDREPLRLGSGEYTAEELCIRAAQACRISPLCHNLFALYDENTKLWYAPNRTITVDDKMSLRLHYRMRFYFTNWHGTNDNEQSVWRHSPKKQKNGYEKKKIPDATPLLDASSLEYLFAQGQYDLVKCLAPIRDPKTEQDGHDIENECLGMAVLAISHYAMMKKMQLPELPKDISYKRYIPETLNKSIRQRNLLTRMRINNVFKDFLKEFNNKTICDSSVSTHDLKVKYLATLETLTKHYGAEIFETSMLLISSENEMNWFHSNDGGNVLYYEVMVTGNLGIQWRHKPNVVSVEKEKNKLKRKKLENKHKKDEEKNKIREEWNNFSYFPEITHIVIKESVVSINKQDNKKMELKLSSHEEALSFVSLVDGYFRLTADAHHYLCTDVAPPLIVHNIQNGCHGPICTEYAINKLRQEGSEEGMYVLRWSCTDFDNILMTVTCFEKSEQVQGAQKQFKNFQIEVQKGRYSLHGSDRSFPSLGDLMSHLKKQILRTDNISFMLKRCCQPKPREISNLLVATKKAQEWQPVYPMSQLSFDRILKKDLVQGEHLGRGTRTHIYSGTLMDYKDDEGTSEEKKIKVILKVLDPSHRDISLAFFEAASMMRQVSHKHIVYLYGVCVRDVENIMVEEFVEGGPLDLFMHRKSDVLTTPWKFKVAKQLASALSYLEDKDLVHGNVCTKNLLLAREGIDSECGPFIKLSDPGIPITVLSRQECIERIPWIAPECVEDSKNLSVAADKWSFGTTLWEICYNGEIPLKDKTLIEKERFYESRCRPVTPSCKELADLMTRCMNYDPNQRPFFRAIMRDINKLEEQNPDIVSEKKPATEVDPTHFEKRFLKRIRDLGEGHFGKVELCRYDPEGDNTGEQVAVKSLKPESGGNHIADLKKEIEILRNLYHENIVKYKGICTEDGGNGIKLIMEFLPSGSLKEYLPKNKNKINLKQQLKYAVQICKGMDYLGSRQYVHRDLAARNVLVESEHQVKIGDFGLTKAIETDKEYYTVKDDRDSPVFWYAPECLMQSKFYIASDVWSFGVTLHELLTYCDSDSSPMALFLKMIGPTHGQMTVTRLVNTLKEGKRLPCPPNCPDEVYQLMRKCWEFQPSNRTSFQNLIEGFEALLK
pIC50: −log10 of the molar value.

{"molecule": "COc1cc(O)c2c(c1)CCCC(=O)C(=O)C(O)CCC[C@H](C)OC2=O (stereo partly specified)", "pIC50": "< 5.00"}

----------
target: Aurora kinase A (Homo sapiens, UniProt O14965)
Sequence (O14965 whole entry): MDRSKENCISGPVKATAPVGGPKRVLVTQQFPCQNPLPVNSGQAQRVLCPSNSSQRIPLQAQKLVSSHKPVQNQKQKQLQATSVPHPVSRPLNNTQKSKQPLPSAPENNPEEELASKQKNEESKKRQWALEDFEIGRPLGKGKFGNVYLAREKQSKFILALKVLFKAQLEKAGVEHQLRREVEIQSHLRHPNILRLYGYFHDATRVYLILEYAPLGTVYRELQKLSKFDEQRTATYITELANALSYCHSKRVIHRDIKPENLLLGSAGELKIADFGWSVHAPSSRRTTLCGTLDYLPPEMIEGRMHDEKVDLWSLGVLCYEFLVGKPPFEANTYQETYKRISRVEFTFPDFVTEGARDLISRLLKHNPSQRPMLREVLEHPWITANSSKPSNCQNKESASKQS
pIC50: −log10 of the molar value.

{"molecule": "COc1cc(O)c2c(c1)CCCC(=O)C(=O)C(O)CCC[C@H](C)OC2=O (stereo partly specified)", "pIC50": "< 5.00"}
